Where do these numbers come from? They come from ChEMBL document CHEMBL2413071.

# Protocol text: Total clearance in Sprague-Dawley rat at 1 mg/kg, iv
# Assay type: ADME, organism-based
# Design: dose 1 mg/kg, route intravenous
# Recorded conditions: in vivo
Measured attribute: clearance (mL/min/kg)

[[record]]
structure_smiles_string = "Cc1ccc2[nH]c(C(=O)N3CCC(CC(C)(C)O)CC3)cc2c1"
number = 42


###

# Protocol text: Tmax in Sprague-Dawley rat at 1 mg/kg, po
# Assay type: ADME, organism-based
# Design: dose 1 mg/kg, route oral
# Recorded conditions: in vivo
Measured attribute: Tmax (min)

[[record]]
structure_smiles_string = "Cc1ccc2[nH]c(C(=O)N3CCC(CC(C)(C)O)CC3)cc2c1"
number = 30

